Molecular target: Sigma-2
Experiment: Sigma-2 Ki determination (NIMH-PDSP)
Details: standard drug haloperidol
pKi: −log10 of the molar value. Counter-ions that a name gives are not always drawn.
Classification field: class 1 = pKi at or over 7; class 0 = pKi under 7.

Reference set, count: 6
* CN[C@]1(c2ccccc2Cl)CCCC[C@@H]1NCCCc1ccccc1 (relative stereo) [Example 4a, dihydrochloride] | class 1
* CN[C@]1(c2ccccc2Cl)CCCC[C@@H]1NCCCc1ccc(F)cc1 (relative stereo) [Example 3a, dihydrochloride] | class 1
* CN[C@]1(c2ccccc2Cl)CCCC[C@H]1NCCCN1CCCC1 (relative stereo) [Example 2b, trihydrochloride] | class 0
* CN[C@]1(c2ccccc2Cl)CCCC[C@H]1NCCCN1CCN(C)CC1 (relative stereo) [Example 13b] | class 0
* CN[C@]1(c2ccccc2Cl)CCCC[C@H]1NCCCc1ccccc1 (relative stereo) [Example 4b, dihydrochloride] | class 0
* CN[C@]1(c2ccccc2Cl)CCCC[C@@H]1NCCCN1CCCC1 (relative stereo) [Example 2a, trihydrochloride] | class 1

Q) Form field: pKi at least 7? Entry: CN[C@]1(c2ccccc2Cl)CCCC[C@H]1NCCCc1ccc(F)cc1 (relative stereo) [Example 3b, dihydrochloride]
A) class 0
